Biological target: HDAC4 (Homo sapiens, UniProt P56524)
Construct: purchased Reaction Biology
Sequence (P56524 whole entry): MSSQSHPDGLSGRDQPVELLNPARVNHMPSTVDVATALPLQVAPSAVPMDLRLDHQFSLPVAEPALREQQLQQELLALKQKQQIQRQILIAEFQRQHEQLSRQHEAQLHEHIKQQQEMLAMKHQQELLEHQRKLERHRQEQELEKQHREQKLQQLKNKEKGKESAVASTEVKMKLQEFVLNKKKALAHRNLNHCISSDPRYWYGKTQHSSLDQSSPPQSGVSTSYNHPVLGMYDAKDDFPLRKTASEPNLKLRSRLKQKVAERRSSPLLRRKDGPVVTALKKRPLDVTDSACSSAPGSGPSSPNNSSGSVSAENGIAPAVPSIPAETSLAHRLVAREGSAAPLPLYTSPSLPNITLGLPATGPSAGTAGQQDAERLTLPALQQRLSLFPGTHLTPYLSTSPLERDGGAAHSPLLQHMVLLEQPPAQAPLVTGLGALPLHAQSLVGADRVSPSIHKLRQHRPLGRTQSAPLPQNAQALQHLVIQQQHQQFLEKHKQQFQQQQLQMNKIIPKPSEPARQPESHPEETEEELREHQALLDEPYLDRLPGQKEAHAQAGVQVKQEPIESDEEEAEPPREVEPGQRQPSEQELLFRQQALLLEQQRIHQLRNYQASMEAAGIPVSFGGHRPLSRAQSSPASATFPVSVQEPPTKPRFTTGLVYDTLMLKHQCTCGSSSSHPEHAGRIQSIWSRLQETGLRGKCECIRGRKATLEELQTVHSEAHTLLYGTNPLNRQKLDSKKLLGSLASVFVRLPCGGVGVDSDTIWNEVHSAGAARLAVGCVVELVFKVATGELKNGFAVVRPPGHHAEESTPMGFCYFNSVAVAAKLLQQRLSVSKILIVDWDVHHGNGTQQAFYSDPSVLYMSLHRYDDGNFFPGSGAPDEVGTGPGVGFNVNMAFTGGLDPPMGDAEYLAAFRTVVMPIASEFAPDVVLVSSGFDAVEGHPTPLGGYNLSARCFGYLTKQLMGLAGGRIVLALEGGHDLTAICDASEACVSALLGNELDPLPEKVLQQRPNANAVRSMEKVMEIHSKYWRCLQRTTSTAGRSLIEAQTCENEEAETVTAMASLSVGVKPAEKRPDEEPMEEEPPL
Test: HDAC enzymatic assay (Reaction Biology), Class 2A substrate
Type: biochemical
Conditions: 10-dose response curve; read-out: Compound IC50 (M), HDAC4
Experimental: Compounds 2 and 9 were tested in an enzymatic assay from Reaction Biology® against HDAC isoforms. Base Reaction buffer: 50 mM Tris-HCl, pH8.0, 137 mM NaCl, 2.7 mM KCl, and 1 mM MgCl2. Add fresh: 1 mg/ml BSA, 1% DMSO Class 2A Substrate (HDAC4, HDAC5, HDAC7, and HDAC9): Boc-Lys(trifluoroacetyl)-AMC 1. […] 5. […] The fluorescence that was generated was detected with excitation (Ex) at […] and emission (Em) at 460 nM by the EnVision Multilabel Plate Reader (PerkinElmer®, Santa Clara, Calif., USA). […]

[
  {
    "Smiles input": "Cc1ncsc1-c1ccc([C@H](C)NC(=O)[C@@H]2C[C@@H](O)CN2C(=O)[C@@H](NC(=O)CCOCCOCCN(CCc2c[nH]c3ccccc23)Cc2ccc(/C=C/C(=O)NO)cc2)C(C)(C)C)cc1",
    "IC50 (M)": "1.31e-05"
  }
]

---

target: HDAC2 (Homo sapiens, UniProt Q92769); construct: purchased Reaction Biology; assay: HDAC enzymatic assay (Reaction Biology), fluorogenic substrate; type: biochemical; details: 10-dose response curve; read-out: Compound IC50 (M), HDAC2
Sequence (Q92769 whole entry): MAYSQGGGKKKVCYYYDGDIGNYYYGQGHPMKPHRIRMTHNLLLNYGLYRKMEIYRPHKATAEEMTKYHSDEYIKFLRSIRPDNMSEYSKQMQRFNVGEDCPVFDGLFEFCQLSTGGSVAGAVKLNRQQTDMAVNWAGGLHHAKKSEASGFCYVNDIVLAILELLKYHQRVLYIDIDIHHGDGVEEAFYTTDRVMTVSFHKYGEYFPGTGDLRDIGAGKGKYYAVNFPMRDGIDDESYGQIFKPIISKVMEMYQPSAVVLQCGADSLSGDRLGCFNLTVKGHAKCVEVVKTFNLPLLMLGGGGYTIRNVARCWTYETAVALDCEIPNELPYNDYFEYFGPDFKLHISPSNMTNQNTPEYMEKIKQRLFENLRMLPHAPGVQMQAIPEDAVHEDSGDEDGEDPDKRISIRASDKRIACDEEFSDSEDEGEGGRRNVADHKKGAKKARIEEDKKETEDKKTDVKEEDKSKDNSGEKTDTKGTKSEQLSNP
Quick reference: IC50 of the listed items.
Value type: IC50 (M)

[
  {
    "Compound": "Cc1ncsc1-c1ccc([C@H](C)NC(=O)[C@@H]2C[C@@H](O)CN2C(=O)[C@@H](NC(=O)CCOCCN(CCc2c[nH]c3ccccc23)Cc2ccc(/C=C/C(=O)Nc3ccccc3N)cc2)C(C)(C)C)cc1 [Compound 9]",
    "Recorded number": "1.15e-05"
  },
  {
    "Compound": "Cc1ncsc1-c1ccc([C@H](C)NC(=O)[C@@H]2C[C@@H](O)CN2C(=O)[C@@H](NC(=O)CCOCCOCCN(CCc2c[nH]c3ccccc23)Cc2ccc(/C=C/C(=O)NO)cc2)C(C)(C)C)cc1 [Compound 2]",
    "Recorded number": "1.03e-06"
  }
]

---

molecular target: HDAC3 (Homo sapiens, UniProt O15379); experiment: HDAC enzymatic assay (Reaction Biology), fluorogenic substrate; format: biochemical; set-up: purchased Reaction Biology; details: 10-dose response curve; read-out: Compound IC50 (M), HDAC3
Sequence (O15379 whole entry): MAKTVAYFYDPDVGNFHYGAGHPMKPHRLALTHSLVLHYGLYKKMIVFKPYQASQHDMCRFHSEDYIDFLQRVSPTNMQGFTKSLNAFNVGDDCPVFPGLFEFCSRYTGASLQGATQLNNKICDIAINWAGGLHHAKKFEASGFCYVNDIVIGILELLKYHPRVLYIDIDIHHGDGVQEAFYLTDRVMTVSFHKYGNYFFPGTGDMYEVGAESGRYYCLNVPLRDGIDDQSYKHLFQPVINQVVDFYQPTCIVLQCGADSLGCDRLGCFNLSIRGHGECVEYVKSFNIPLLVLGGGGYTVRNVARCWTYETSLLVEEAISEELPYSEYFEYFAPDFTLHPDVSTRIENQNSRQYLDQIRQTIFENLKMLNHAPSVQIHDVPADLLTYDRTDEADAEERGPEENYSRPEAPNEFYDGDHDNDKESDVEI
Sequence (Q9Y618 395-489 partner limits assumed): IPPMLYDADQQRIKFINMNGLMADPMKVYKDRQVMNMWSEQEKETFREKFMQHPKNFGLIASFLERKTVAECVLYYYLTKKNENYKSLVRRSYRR
Quick reference: IC50 of the listed items.

[
  {
    "Molecule": "Cc1ncsc1-c1ccc([C@H](C)NC(=O)[C@@H]2C[C@@H](O)CN2C(=O)[C@@H](NC(=O)CCOCCOCCN(CCc2c[nH]c3ccccc23)Cc2ccc(/C=C/C(=O)NO)cc2)C(C)(C)C)cc1 [Compound 2]",
    "IC50 [M]": "5.77e-07"
  },
  {
    "Molecule": "Cc1ncsc1-c1ccc([C@H](C)NC(=O)[C@@H]2C[C@@H](O)CN2C(=O)[C@@H](NC(=O)CCOCCN(CCc2c[nH]c3ccccc23)Cc2ccc(/C=C/C(=O)Nc3ccccc3N)cc2)C(C)(C)C)cc1 [Compound 9]",
    "IC50 [M]": "1.12e-05"
  }
]

---

biological target: VHL (Homo sapiens, UniProt P40337); construct: Cells stably expressing the BRD4BD2-GFP with mCherry reporter (40) were seeded; endogenous in cells; assay: Cellular VHL engagement assay (BRD4BD2-GFP / mCherry reporter cells); conditions: with 250 nM AT1, 5 h
Sequence (P40337 whole entry, species assumed): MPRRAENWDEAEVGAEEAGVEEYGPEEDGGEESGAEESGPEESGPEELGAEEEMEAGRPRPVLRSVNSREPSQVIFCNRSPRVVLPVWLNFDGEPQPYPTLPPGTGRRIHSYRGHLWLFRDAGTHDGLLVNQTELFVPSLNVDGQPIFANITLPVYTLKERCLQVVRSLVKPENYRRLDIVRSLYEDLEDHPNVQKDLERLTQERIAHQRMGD
Quick reference: IC50 of the listed items.

[
  {
    "Smiles input": "Cc1ncsc1-c1ccc([C@H](C)NC(=O)[C@@H]2C[C@@H](O)CN2C(=O)[C@@H](NC(=O)CCOCCOCCN(CCc2c[nH]c3ccccc23)Cc2ccc(/C=C/C(=O)Nc3ccccc3N)cc2)C(C)(C)C)cc1",
    "IC50 (µM)": 9
  },
  {
    "Smiles input": "Cc1ncsc1-c1ccc([C@H](C)NC(=O)[C@@H]2C[C@@H](O)CN2C(=O)[C@@H](NC(=O)CCOCCOCCOCCOCCOCCN(CCc2c[nH]c3ccccc23)Cc2ccc(/C=C/C(=O)NO)cc2)C(C)(C)C)cc1",
    "IC50 (µM)": 19.3
  },
  {
    "Smiles input": "Cc1ncsc1-c1ccc([C@H](C)NC(=O)[C@@H]2C[C@@H](O)CN2C(=O)[C@@H](NC(=O)CCOCCN(CCc2c[nH]c3ccccc23)Cc2ccc(/C=C/C(=O)Nc3ccccc3N)cc2)C(C)(C)C)cc1",
    "IC50 (µM)": 298
  },
  {
    "Smiles input": "Cc1ncsc1-c1ccc([C@H](C)NC(=O)[C@@H]2C[C@@H](O)CN2C(=O)[C@@H](NC(=O)CCOCCN(CCc2c[nH]c3ccccc23)Cc2ccc(/C=C/C(=O)NO)cc2)C(C)(C)C)cc1",
    "IC50 (µM)": 16.9
  },
  {
    "Smiles input": "Cc1ncsc1-c1ccc(CNC(=O)[C@@H]2C[C@@H](O)CN2C(=O)[C@@H](NC(=O)C2(F)CC2)C(C)(C)C)c(OCCOCCOCCN(CCc2c[nH]c3ccccc23)Cc2ccc(/C=C/C(=O)NO)cc2)c1",
    "IC50 (µM)": 10.1
  }
]

From: patent US20220401564A1
